- ASSAY REMARKS: log P value (physical constant)
- Type: physicochemical
- COND: acidic
QUANTITY KIND: logP
Enter a number only.

# input Provide logP value for the following compound: CCOC(=O)c1c(CC)nn(C)c1NC(=O)Cc1cccc(Cl)c1
# output 2.65

###

- System: Venturia inaequalis
- ASSAY REMARKS: Venturia test (apple)/protective
- Assay type: in vivo
- COND: protective, application rate 100 g/ha, evaluation 12 days after inoculation, 100% = no infection
This listing pairs compounds with measured Efficacy in %.
Please give a number only; it is taken to be in %.

As a guide, the following entries are already answered.
[[record]]
compound = "CCc1cc(NC(=O)Cc2ccc(-c3ccc(OC(F)(F)F)cc3)cc2)n(C)n1"
tested_system = "Venturia inaequalis"
quantity_kind = "Efficacy in %"
scale_unit = "%"
test_result = 96

[[record]]
compound = "CCc1nn(C)c(NC(=O)Cc2ccc(-c3ccc(OC(F)(F)F)cc3)cc2)c1Cl [drawing 292]"
tested_system = "Venturia inaequalis"
quantity_kind = "Efficacy in %"
scale_unit = "%"
test_result = 96

[[record]]
compound = "CCOC(=O)c1c(CC)nn(C)c1NC(=O)Cc1ccc(-c2ccc(OC(F)(F)F)cc2)cc1 [drawing 291]"
tested_system = "Venturia inaequalis"
quantity_kind = "Efficacy in %"
scale_unit = "%"
test_result = 93


// below: Efficacy in % requested for another compound
# input Return the recorded Efficacy in % value; entry: CCOC(=O)c1c(CC)nn(C)c1NC(=O)Cc1cccc(Oc2ccc(OC(F)(F)F)cc2)c1 [drawing 290]
# output 90
